# Tested On: hAR•NADPH (Homo sapiens)
# Construct: hexa-His (cleaved yes)
# Assay Protocol: Fluorescence titration of inhibitor binding to the hAR•NADPH binary complex
# Reported Conditions: 60 μM NADPH, 0.5 μM protein, 5 mM sodium phosphate pH 7.0
Quantity Kind: pKd
Entry type: numeric. Quantity: pKd, the -log10 of concentration in molar units.

Item under review: "Cc1cccc(Nc2cc(Cl)nc(SCC(=O)O)n2)c1C" . Reported pKd?
6.96

---

# Tested On: human Aldose reductase (hAR) (Homo sapiens, UniProt P15121)
# Construct: hexa-His (cleaved yes); made in house; host or cells: E. coli BL21
# Assay Protocol: Fluorescence titration (quenching) of cofactor binding to hAR
# Reported Conditions: NADPH binding to apo hAR; 0.5 μM protein, 5 mM sodium phosphate pH 7.0, 100 μM DTT; read-out: Kd(E-NADPH), equilibrium dissociation constant
Quantity Kind: Kd
Record the result as a number with its unit.

Item under review: "NC(=O)C1=CN([C@@H]2O[C@H](COP(=O)(O)OP(=O)(O)OC[C@H]3O[C@@H](n4cnc5c(N)ncnc54)[C@H](OP(=O)(O)O)[C@@H]3O)[C@@H](O)[C@H]2O)C=CC1" . Reported Kd?
480 nM

---

# Tested On: hAR•NADP^+ (Homo sapiens)
# Construct: hexa-His (cleaved yes)
# Assay Protocol: Fluorescence titration of inhibitor binding to the hAR•NADP^+ binary complex
# Reported Conditions: 60 μM NADP^+, 0.5 μM protein, 10 mM Tris-HCl pH 9.0
Quantity Kind: pKd
Entry type: numeric. Quantity: pKd, the -log10 of concentration in molar units.

Item under review: "Cc1cccc(Nc2cc(Cl)nc(SCC(=O)O)n2)c1C" . Reported pKd?
6.98
